systemUnderTest: human alpha-synuclein monomer (human, UniProt P37840 1-140)
protocol: SPR (Biacore 8K), IgG captured on anti-human Fc, aSyn monomer injected
endpointName: Kd (nM)

* HC5_LC6 (antibody, V domains shown, humanized 20H4 IgG) VH: EVQLVESGGGLVQPGGSLRLSCAASGFTFSNAAMYWVRQAPGKGLELLARIRTKPNNYATYHADSVKGRFTISRDDSKNTVYLQMNSLRAEDTAVYYCTADMATGDYWGQGTLVTVSS VL: EIVMTQSPATLSLSPGERATLSCKASQNINKNLDWYQQKPGQAPRPLIYSTNNLQTGVPARFSGSGSGTDYTLTISSLQPEDFAVYYCYQYKSAWTFGQGTKVEIK | 2.78
